Molecular target: µLight (Homo sapiens, UniProt P35372, V175Q)
Sequence (P35372 whole entry V175Q, looked up): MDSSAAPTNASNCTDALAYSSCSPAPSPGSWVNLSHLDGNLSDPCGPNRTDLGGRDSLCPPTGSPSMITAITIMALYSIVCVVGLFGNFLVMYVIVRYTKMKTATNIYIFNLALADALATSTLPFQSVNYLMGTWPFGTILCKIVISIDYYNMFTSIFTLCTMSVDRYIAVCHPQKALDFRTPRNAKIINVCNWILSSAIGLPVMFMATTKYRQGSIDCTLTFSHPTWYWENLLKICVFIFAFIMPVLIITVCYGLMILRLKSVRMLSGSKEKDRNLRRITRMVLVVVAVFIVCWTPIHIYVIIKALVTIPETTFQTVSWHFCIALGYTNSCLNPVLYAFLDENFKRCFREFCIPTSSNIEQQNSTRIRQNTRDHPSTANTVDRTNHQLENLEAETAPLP
Assay: biochemical
Type: binding
Conditions: read-out: μLight IC50
Where no end group is shown, it is not given here.
measured-endpoint: pIC50
pIC50 is a log-scale quantity: -log10 of the concentration expressed in molar.

YGGFMRRVGRPEWWMDYQ [BAM18] :: 7.85

Here is another sequence to look at.
Note down pIC50 recorded for YGGFMRRVGRPEWWMDYQKRYGGFL [Peptide E]
6.81

* * *

The compounds listed here are annotated with their Normalized ΔF/F of κLight1.3.
Biological target: κLight1.3 (Homo sapiens, UniProt P41145, INS261[…]/L259S/S262L/V164K)
Construct: TlcnC (telencephalin) tag (C); PRC tag (C); ER2 (ER export motif FCYENEV) tag (C); expressed in transfected cells; dissociated hippocampal neurons (AAV9-hSyn); mouse brain (AAV9-hSyn)
Sequence (P41145 with tags, fused parts or gaps V164K/L259S/INS261[withheld]/S262L): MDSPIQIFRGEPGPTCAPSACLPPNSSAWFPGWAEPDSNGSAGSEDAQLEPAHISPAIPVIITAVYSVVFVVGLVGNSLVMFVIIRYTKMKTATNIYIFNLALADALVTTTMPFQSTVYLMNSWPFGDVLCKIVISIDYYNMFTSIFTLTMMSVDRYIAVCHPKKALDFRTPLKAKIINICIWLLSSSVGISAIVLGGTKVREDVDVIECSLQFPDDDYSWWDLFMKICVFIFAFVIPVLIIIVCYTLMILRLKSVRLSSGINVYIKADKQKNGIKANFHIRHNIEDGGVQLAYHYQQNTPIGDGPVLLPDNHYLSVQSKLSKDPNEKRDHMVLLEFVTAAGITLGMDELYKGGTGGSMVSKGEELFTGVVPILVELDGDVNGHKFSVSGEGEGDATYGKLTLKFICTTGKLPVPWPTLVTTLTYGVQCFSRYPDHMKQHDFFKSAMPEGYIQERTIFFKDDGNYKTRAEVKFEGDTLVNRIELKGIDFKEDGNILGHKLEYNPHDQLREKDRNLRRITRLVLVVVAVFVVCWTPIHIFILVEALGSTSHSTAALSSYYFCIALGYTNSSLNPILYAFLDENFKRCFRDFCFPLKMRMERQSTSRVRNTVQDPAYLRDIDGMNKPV
Format: cell-based
# respond with the number and nothing more

A selection of reference data follows.
CC(C)[C@H](NC(=O)[C@H](CC(=O)O)NC(=O)[C@H](Cc1ccccc1)NC(=O)[C@@H](C)NC(=O)[C@@H](N)Cc1ccc(O)cc1)C(=O)N[C@H](C(=O)NCC(N)=O)C(C)C [Deltorphin I] :: 0.26
CN(C(=O)/C=C/c1ccoc1)[C@@H]1CC[C@@]2(O)[C@H]3Cc4ccc(O)c5c4[C@@]2(CCN3CC2CC2)[C@H]1O5 [Nalfurafine, nalfurafine] :: 1.91
CC[C@H](C)[C@H](NC(=O)[C@H](CCCNC(=N)N)NC(=O)[C@H](CCCNC(=N)N)NC(=O)[C@H](CC(C)C)NC(=O)[C@H](Cc1ccccc1)NC(=O)CNC(=O)CNC(=O)[C@@H](N)Cc1ccc(O)cc1)C(=O)O [DynA8, dynorphin A1-8] :: 0.61
C=CCN1C[C@H](C)N([C@@H](c2ccccc2)c2ccc(C(=O)N(CC)CC)cc2)C[C@H]1C [SNC162] :: 0.009

Specify measured Normalized ΔF/F of κLight1.3 for CC1(C)SSC(C)(C)[C@@H](NC(=O)[C@@H](N)Cc2ccc(O)cc2)C(=O)NCC(=O)N[C@@H](Cc2ccccc2)C(=O)N[C@H]1C(=O)O [DPDPE] .
0.19

* * *

Listed compounds paired with reported pEC50
Target: κLight1.3 (Homo sapiens, UniProt P41145, INS261[…]/L259S/S262L/V164K)
Construct: TlcnC (telencephalin) tag (C); PRC tag (C); ER2 (ER export motif FCYENEV) tag (C); expressed in transfected cells; dissociated hippocampal neurons (AAV9-hSyn); mouse brain (AAV9-hSyn)
Format: cell-based
Details: read-out: κLight1.3 EC50 in neurons; dissociated hippocampal neurons
Please note pEC50 is a logarithmic value: minus log10 of concentration in mol/L. Answer with that number alone.

CC[C@H](C)[C@H](NC(=O)[C@H](CCCNC(=N)N)NC(=O)[C@H](CCCNC(=N)N)NC(=O)[C@H](CC(C)C)NC(=O)[C@H](Cc1ccccc1)NC(=O)CNC(=O)CNC(=O)[C@@H](N)Cc1ccc(O)cc1)C(=O)N[C@@H](CCCNC(=N)N)C(=O)N1CCC[C@H]1C(=O)N[C@@H](CCCCN)C(=O)N[C@@H](CC(C)C)C(=O)N[C@@H](CCCCN)C(=O)O :: 7.72

Output pEC50 of `CSCC[C@H](NC(=O)[C@H](Cc1ccccc1)NC(=O)CNC(=O)CNC(=O)[C@@H](N)Cc1ccc(O)cc1)C(=O)O`
4.28
